target: purified recombinant HIV-1 reverse transcriptase (Human immunodeficiency virus type 1 group M subtype B, UniProt P04585); construct: purified recombinant HIV-1 reverse transcriptase; made in house; host or cells: Escherichia coli; assay: reverse transcriptase inhibition, poly(rA)/(dT) template primer, [3H]dTTP uptake; format: biochemical
Measured IC50 by item
readout-kind: IC50 (µM)

>>> quantitative_readout("CC(C)c1nc(CCO)n(Cc2ccc(N)cc2)c1Sc1cc(Cl)cc(Cl)c1 [Compound I-139]")
3.67
>>> quantitative_readout("CC(C)c1nc(COC(N)=O)n(C)c1Cc1cc(Cl)cc(Cl)c1 [Compound I-103]")
19.1
>>> quantitative_readout("CC(C)c1nc(CCO)n(Cc2cccc(N)c2)c1Sc1cc(Cl)cc(Cl)c1 [Compound I-141]")
4.12
>>> quantitative_readout("CC(C)c1nc(CO)n(Cc2ccccc2[N+](=O)[O-])c1Sc1cc(Cl)cc(Cl)c1 [Compound 103c]")
57.9
>>> quantitative_readout("CC(C)c1nc(CN)n(C)c1Sc1cccc([N+](=O)[O-])c1 [Compound I-67]")
17.6
>>> quantitative_readout("CC(C)c1nc(COC(N)=O)n(Cc2ccccc2)c1Sc1cccc([N+](=O)[O-])c1 [Compound I-47]")
2.3
>>> quantitative_readout("CC(C)c1nc(CO)n(CCCCc2ccccc2)c1Sc1cc(Cl)cc(Cl)c1 [Compound I-123]")
77.4
>>> quantitative_readout("CCn1c(COC(N)=O)nc(C(C)C)c1Sc1cccc(Cl)c1 [Compound I-53]")
0.593
>>> quantitative_readout("COC(=O)NCc1nc(C(C)C)c(Sc2cc(Cl)cc(Cl)c2)n1C [Compound I-91]")
0.876
